pIC50 reference
Target: RON (Homo sapiens, UniProt Q04912)
Sequence (Q04912 913-1400): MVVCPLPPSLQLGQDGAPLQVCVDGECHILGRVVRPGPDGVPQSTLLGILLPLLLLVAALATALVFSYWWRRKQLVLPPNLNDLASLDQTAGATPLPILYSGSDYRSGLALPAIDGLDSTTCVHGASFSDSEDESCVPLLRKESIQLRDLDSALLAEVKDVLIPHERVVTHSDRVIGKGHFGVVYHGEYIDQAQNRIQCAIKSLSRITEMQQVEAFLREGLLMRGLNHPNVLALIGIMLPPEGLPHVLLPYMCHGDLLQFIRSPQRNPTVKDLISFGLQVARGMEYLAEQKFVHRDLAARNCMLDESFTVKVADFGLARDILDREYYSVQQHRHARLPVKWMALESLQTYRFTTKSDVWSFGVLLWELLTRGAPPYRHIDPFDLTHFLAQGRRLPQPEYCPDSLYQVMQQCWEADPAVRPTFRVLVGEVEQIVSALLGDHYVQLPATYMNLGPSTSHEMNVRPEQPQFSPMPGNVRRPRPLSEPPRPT
Test: sfRON cell mechanistic assay (HeLa), phosphorylated RON ELISA
Conditions: HeLa cells transfected with sfRON; inhibition of phosphorylated RON; four hours incubation; at least duplicate experiments; read-out: sfRON mech IC50
pIC50: −log10 of the molar value.

CNC(=O)[C@H]1CC[C@H](n2nc(C)c(-c3cnc4[nH]cc([C@H](C)c5c(OC)ccc(F)c5Cl)c4c3)c2C)CC1 [Example 24] = 6.00 to 6.70
Cc1c(-c2cnc3[nH]cc([C@H](C)c4c(OC(F)F)ccc(F)c4Cl)c3c2)cnn1[C@H]1CC[C@H](N)CC1 [Example 93] = ≥ 6.70
Cc1c(-c2cnc3[nH]cc([C@H](C)c4c(OC(F)F)ccc(F)c4Cl)c3c2)cnn1[C@@H]1C[C@@H](O)[C@@H](O)C1 [Example 75] = ≥ 6.70

Q: Value lookup for pIC50; key = COc1ccc(F)c(Cl)c1[C@@H](C)c1c[nH]c2ncc(-c3cnc(C)n3C)cc12 [Example 65]
A: < 6.00

Q: Follow-up entry: [2H][C@@](C)(c1c(OC)ccc(F)c1Cl)c1c[nH]c2ncc(-c3cnn([C@H]4CC[C@H](O)CC4)c3C)cc12 [Example 110]
A: 6.00 to 6.70

Q: Follow-up entry: COc1ccc(F)c(Cl)c1[C@@H](C)c1c[nH]c2ncc(-c3c(C)nn(C)c3Cl)cc12 [Example 63]
A: < 6.00

Q: Follow-up entry: COc1ccc(F)c(Cl)c1[C@@H](C)c1c[nH]c2ncc(-c3cnn([C@H]4CC[C@H](O)CC4)c3C(F)(F)F)cc12 [Example 40]
A: < 6.00
